- targetOrTestSystem: CcapOBP83a-2 (Ceratitis capitata, UniProt W8W3U3)
- Sequence (W8W3U3 entry or part of it): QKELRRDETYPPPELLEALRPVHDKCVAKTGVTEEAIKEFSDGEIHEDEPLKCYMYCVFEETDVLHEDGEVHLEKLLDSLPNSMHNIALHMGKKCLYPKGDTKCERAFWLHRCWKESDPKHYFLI
- test: biochemical
- Assay type: binding
- reportedConditions: second fraction; 1-NPN 3 μM; read-out: Ki (dissociation constant)
Let's look at some compounds and their measured Ki.
Express your answer in µM, writing the number without its unit.

Input: Please report the recorded Ki for C=CCc1ccc(OC)c(OC)c1 [Methyleugenol, reference compound] .
Output: 4.64

Input: How about this compound: CCCC/C=C/CC(=O)OCC [Ethyl (E)-3-octenoate]
Output: 2.41

Input: How about this compound: C=CC(=C)CC/C=C(\C)CCC=C(C)C [(E)-β-Farnesene, reference compound]
Output: 0.2

# evaluate next
Input: Please report the recorded Ki for C=CC(C)(O)CCC=C(C)C (racemic) [(RS)-Linalool] .
Output: 6.1

###

- Test system: antennae of male and female C. capitata
- test: Coupled GC–EAG of male volatile extract on medfly antennae
- Design: species or system Ceratitis capitata
- reportedConditions: male antennae; in a total of five replicates; GC–EAG
readout: EAG response: number of males (M) that showed a positive EAG response

Reference set (4 entries):
Input: Please report the recorded EAG response: number of males (M) that showed a positive EAG response for C=C/C(C)=C\CC=C(C)C [(Z)-Ocimene] .
Output: M4F4

Input: How about this compound: CCCC/C=C/CC(=O)OCC [Ethyl (E)-3-octenoate]
Output: M4F4

Input: How about this compound: `CC(C)CCO`
Output: M4F4

Input: How about this compound: `c1ccc2[nH]ccc2c1`
Output: M3F3

# evaluate next
Input: Please report the recorded EAG response: number of males (M) that showed a positive EAG response for CC/C=C/CC(=O)OCC [Ethyl (E)-3-hexenoate] .
Output: M4F4
